Consider the following molecules; for each one, report its growth.
# Test system: RXF 393 renal
# Protocol Text: NCI-60 one-dose screen, 48 h (100 = growth as untreated, 0 = no growth, -100 = all killed)
# Experimental Context: 10 µM unless noted
This is part of a sample that, as a whole, favours compounds with a hit. Of some 83,000 tested, about 20% had one in any assay. Activity calls are given as the source filed them. Rule for the calls: active = growth percent below 10; inactive = the rest.

Known results for molecules:
>>> value_measured("CCOc1ccc(Nc2nc(-c3ccc4c(c3)NC(=O)CO4)cs2)cc1")
"87.3% (inactive)"
>>> value_measured("C=C1C(=O)O[C@H]2[C@H]1CC/C(COC(=O)NCc1c[nH]c3ccc(Cl)cc13)=C\\CC[C@@]1(C)O[C@@H]21")
"-92.5% (active)"
>>> value_measured("N#C/C(=C\\c1cccc(C#N)c1)c1ccccc1")
"108% (inactive)"
>>> value_measured("COc1cccc(-c2ccc3c(c2)NC(=O)/C3=C\\c2ccc[nH]2)c1")
"32.2% (inactive)"

Need growth for each of these molecules.
1. Cc1cnc(C(=O)Nc2nc3ccc(S(=O)(=O)Nc4ccc(C5(C(F)(F)F)CC5)cc4)cc3[nH]2)cn1
2. CCCCCCNC(=O)Nc1ccc2cc3ccc(NC(=O)NCCCCCC)cc3nc2c1
3. CNC(=O)c1cccc(Cn2nc(C)c(NC(=O)c3ccc(COc4ccc(C(F)(F)F)cc4C)cc3)c2C)n1
4. COC(=O)/C=C1\S/C(=N\NC(=O)c2cc3ccc2/C=C\c2ccc(cc2)/C=C\3)N(c2ccccc2)C1=O
5. COc1ccc(NC(N)=NCCCOc2ccc(F)cc2)cc1
6. COC1=CC(=O)c2ccccc2C1=O

["-17.4% (active)", "-47.7% (active)", "64.5% (inactive)", "5.34% (active)", "104% (inactive)", "118% (inactive)"]
